# Test system: U2OS
# Test: nuclei count (viability) relative to DMSO (% of DMSO); higher = more viable cells
# Experimental Setup: 10 µM; 24 h
In all, about 3,200 compounds were measured (“nuclei count (viability) relative to DMSO”: median about 99, lowest 2% from about 16 on). For the sample, the lowest values were picked, then their nearest neighbours and some compounds at random.
So basically every entry gets a class from its nuclei count, ranges being lowest = under 20, middle = from 20 up to 80, highest = 80 and over

{"columns": ["Molecule", "Study System", "Assigned Category"],
 "data": [
  ["CCNC(=O)c1cc2c(-c3cc(OCCN4CCCC4)c(Cl)cc3Cl)nc(N)nc2s1", "U2OS", "middle"],
  ["CC(C)c1cccc(=O)c(O)c1", "U2OS", "highest"],
  ["COc1cc([C@@H]2c3cc4c(cc3[C@@H](O[C@@H]3O[C@@H]5CO[C@@H](C)O[C@H]5[C@H](O)[C@H]3O)[C@H]3COC(=O)[C@H]23)OCO4)cc(OC)c1O [Etoposide]", "U2OS", "middle"]
]}

query: State the class of the molecule shown: CCN(CC)CCOc1ccc(Nc2ncc3cc(-c4c(Cl)cccc4Cl)c(=O)n(C)c3n2)cc1
result: lowest

query: Sort CSc1cccc(Nc2ncc3cc(-c4c(Cl)cccc4Cl)c(=O)n(C)c3n2)c1 into one of the categories.
result: middle

query: # bin lookup: classify CCCOC(=O)c1cc(O)c(O)c(O)c1 [N-Propyl gallate] by its nuclei count
result: highest

query: Looking at CCCS(=O)(=O)c1nc(NC2CC2)cc(-c2ccc3c(ccn3C3CC(C)(C)NC(C)(C)C3)c2)n1 , which class would you pick?
result: lowest

query: Which class is correct for the following molecule? COc1cc([C@@H]2c3cc4c(cc3[C@@H](O[C@@H]3O[C@@H]5CO[C@@H](c6cccs6)O[C@H]5[C@H](O)[C@H]3O)[C@H]3COC(=O)[C@H]23)OCO4)cc(OC)c1O [Teniposide (Vumon)]
result: lowest

---

# Tested on: U2OS
# Test: nuclei count (viability) relative to DMSO (% of DMSO); higher = more viable cells
# Experimental Setup: 10 µM; 24 h
Structures can show the parent of a compound that is named as a salt. Over roughly 3,200 compounds, “nuclei count (viability) relative to DMSO” has its median near 99; the lowest 2% begin near 16. Only a selection was taken, and the lowest values are over-represented in it overall.
Hi all, reminder that labels come from nuclei count, split as c1 = under 30, c2 = from 30 up to 100, c3 = 100 and over

Example entries begin here.
{"columns": ["Compound", "Assigned Category"],
 "data": [
  ["CN(C)CCN(Cc1ccc(Cl)cc1)c1ccccn1 [Chloropyramine hydrochloride]", "c3"],
  ["O=c1[nH]nc(Sc2ncc([N+](=O)[O-])s2)n1-c1ccc2c(c1)OCCO2", "c1"],
  ["CCN(CCO)CCCC(C)Nc1ccnc2cc(Cl)ccc12 (stereo not drawn) [Hydroxychloroquine]", "c2"]
]}

query: // bin(item) where item = COc1cc(OC)c(/C=C/S(=O)(=O)Cc2ccc(OC)c(NCC(=O)O)c2)c(OC)c1
result: c1

query: Each compound maps to one class by nuclei count. Which class for Cn1cc(C2=C(c3cn(CCCSC(=N)N)c4ccccc34)C(=O)NC2=O)c2ccccc21 [Ro 31-8220 mesylate] ?
result: c1

query: Category of O=C(/C=C/c1c(C(=O)O)[nH]c2cc(Cl)cc(Cl)c12)Nc1ccccc1 :
result: c2

query: Dear colleague, I would appreciate it if you could identify the bin for Nc1nc(NCCc2ccc(O)cc2)nc2nc(-c3ccco3)nn12 and reply at your convenience.
result: c3

query: Returns: class label. Input: CC(C)C[C@H](NC(=O)CNC(=O)c1cc(Cl)ccc1Cl)B1OC(=O)C(CC(=O)O)(CC(=O)O)O1
result: c1

---

# Tested on: U2OS
# Test: nuclei count (viability) relative to DMSO (% of DMSO); higher = more viable cells
# Experimental Setup: 10 µM; 24 h
In all, about 3,200 compounds were measured (“nuclei count (viability) relative to DMSO”: median about 99, lowest 2% from about 16 on). Only a selection was taken, and the lowest values are over-represented in it overall.
Readout Name: nuclei count
One number for each entry.

{"columns": ["Molecule", "nuclei count"],
 "data": [
  ["CC(C)c1ccc(NC(=O)Cn2cnc3c2c(=O)n(C)c(=O)n3C)cc1", 103]
]}

// input: 2 molecules below; output: nuclei count for each
1. C1COC(NC(C2CC2)C2CC2)=N1 [Rilmenidine hemifumarate]
2. Cc1cc(/C(=C/Nc2ccc(Cl)cc2)C(=O)Nc2ccc(Cl)cc2)on1

result:
103
102

---

# System: U2OS
# Test: nuclei count (viability) relative to DMSO (% of DMSO); higher = more viable cells
# Experimental Setup: 10 µM; 24 h
Where a name gives a salt, the structure may show the parent alone. Over roughly 3,200 compounds, “nuclei count (viability) relative to DMSO” has its median near 99; the lowest 2% begin near 16. The entries come from a sample that favours the lowest values as a whole.
Would you mind telling me the reported nuclei count of each entry?
Numbers only.

{"columns": ["Molecule", "nuclei count"],
 "data": [
  ["CC[C@]1(O)C[C@H]2CN(CCc3c([nH]c4ccccc34)[C@@](C(=O)OC)(c3cc4c(cc3OC)N(C=O)[C@H]3[C@@](O)(C(=O)OC)[C@H](OC(C)=O)[C@]5(CC)C=CCN6CC[C@]43[C@@H]65)C2)C1 [Vincristine sulfate]", 17.8]
]}

// batch mode: one nuclei count value per listed entry
1. NC(=O)c1ccncc1 [Isonicotinamide]
2. C=CCn1c(=O)c2cnc(Nc3ccc(N4CCN(C)CC4)cc3)nc2n1-c1cccc(C(C)(C)O)n1
3. C=CC(=O)Nc1cccc(Nc2nc(Nc3ccc(N4CCN(C(C)=O)CC4)cc3OC)ncc2C(F)(F)F)c1
4. Cc1c(NC(=O)OC[C@@H]2COCCN2)cn2ncnc(Nc3ccc4c(cnn4Cc4cccc(F)c4)c3)c12
5. Cc1cc(=O)n(C)c2cc(N3C(=O)CC[C@H](NS(=O)(=O)CC(C)C)[C@H]3c3ccc(Cl)cc3)ccc12
6. OC(c1ccccc1)C1CCN(CCc2ccccc2)CC1 (stereo unspecified)
7. CC1=C(C(=O)OCCN(Cc2ccccc2)c2ccccc2)C(c2cccc([N+](=O)[O-])c2)C(P2(=O)OCC(C)(C)CO2)=C(C)N1 (stereo unspecified) [Efonidipine hydrochloride monoethanolate]
8. N[C@@H](CSC(c1ccccc1)(c1ccccc1)c1ccccc1)C(=O)O [S-Trityl-L-cysteine]

result:
1: 99.6; 2: 25.1; 3: 57.6; 4: 100; 5: 104; 6: 99.4; 7: 99.9; 8: 95

// for each molecule below, give its nuclei count
1. C/C=C1\NC(=O)[C@H]2CSSCC/C=C/[C@H](CC(=O)N[C@H](C(C)C)C(=O)N2)OC(=O)[C@H](C(C)C)NC1=O [Romidepsin (FK228 ,depsipeptide)]
2. CC1(C)OC2=C(C(=O)c3ccccc3C2=O)[C@H](NCc2ccccc2)[C@@H]1O

result:
1. 8.81
2. 14.7

---

# Tested on: U2OS
# Test: nuclei count (viability) relative to DMSO (% of DMSO); higher = more viable cells
# Experimental Setup: 10 µM; 24 h
Counter-ions that a name gives are not always drawn. Whole data set: some 3,200 compounds, median “nuclei count (viability) relative to DMSO” near 99, cut for the lowest 2% near 16. The sample as a whole holds a higher share of the lowest values than the screen did.
Readout Name: nuclei count

{"columns": ["Compound", "nuclei count"],
 "data": [
  ["NC(=O)Nc1sc(-c2ccc(F)cc2)cc1C(N)=O", 47],
  ["O=C1c2c(O)ccc(O)c2C(=O)c2c(NCCNCCO)ccc(NCCNCCO)c21 [Mitoxantrone dihydrochloride]", 15.5],
  ["O=C(CCc1ccc(O)cc1)c1c(O)cc(O)cc1O[C@@H]1O[C@H](CO)[C@@H](O)[C@H](O)[C@H]1O", 82.5],
  ["COC(=O)[C@]12CCC(C)(C)C[C@H]1[C@H]1C(=O)C=C3[C@@]4(C)C=C(C#N)C(=O)C(C)(C)[C@@H]4CC[C@@]3(C)[C@]1(C)CC2", 4.35],
  ["O=C1CCc2c(ccc3ccccc23)O1", 104]
]}

Here are 2 compounds. What values of nuclei count were reported for them?
1. CCN(CC)c1ccc(/C=N/NC(=O)c2ccc(O)cc2)cc1
2. CC1=CC(=O)C(C(C)C)=CC1=O

result:
1. 89.4
2. 103

---

Assignment: determine reported nuclei count for the given molecules.
# System: U2OS
# Test: nuclei count (viability) relative to DMSO (% of DMSO); higher = more viable cells
# Experimental Setup: 10 µM; 24 h
Counter-ions that a name gives are not always drawn. The full ranking holds about 3,200 compounds; the median of “nuclei count (viability) relative to DMSO” is about 99, and the lowest 2% start at about 16. Shown is part of a subset that was picked to be rich in the lowest values.
One number for each entry.

Field: example entries. Status: answers known.
{"columns": ["Molecule", "Observed"],
 "data": [
  ["COc1ccc(-n2[nH]c3c4c(ncc3c2=O)CCCCC4)cc1", 99.9],
  ["CCN(CC)CCCC(C)Nc1ccnc2cc(Cl)ccc12 (stereo not given) [Chloroquine diphosphate]", 103],
  ["CCN(CC)CCCC(C)Nc1ccnc2cc(Cl)ccc12 (stereo not given) [Chloroquine]", 96.6],
  ["Oc1ccc(OC2CCCCO2)cc1 (stereo not given)", 91.1],
  ["CCNC(=O)Nc1ccc(-c2nc3c(c(N4CCOC[C@@H]4C)n2)CCN(C2COC2)C3)cc1", 75.4]
]}

Count: 8. Required value per item: nuclei count.
1. CCN(CC)CCCC(C)Nc1c2ccc(Cl)cc2nc2ccc(OC)cc12 (stereo not given) [Quinacrine dihydrochloride dihydrate]
2. COCC(=O)O[C@]1(CCN(C)CCCc2nc3ccccc3[nH]2)CCc2cc(F)ccc2[C@@H]1C(C)C [Mibefradil dihydrochloride]
3. CC(C)[C@H]1c2ccc(F)cc2CC[C@@]1(CCN(C)CCCc1nc2ccccc2[nH]1)OC(=O)C1CC1 [NNC 55-0396 dihydrochloride]
4. Cn1cc(C2=C(c3cn(CCCSC(=N)N)c4ccccc34)C(=O)NC2=O)c2ccccc21 [Ro 31-8220 Mesylate]
5. CC(C)c1ccc(Cn2ccc3c4c(N)nc(NC5CC5)nc4ccc32)cc1
6. CCCCCCCCCCCCCCCC[N+](C)(C)CCN(Cc1ccc(OC)cc1)c1ncccn1 [Thonzonium bromide]
7. CC(C)C[C@H](NC(=O)[C@H](CCC(=O)O)NC(=O)CNC(=O)c1ccc(/C=C/C(=O)O)cc1)C(N)=O
8. CCOC(=O)c1cnc2c(cnn2CC)c1NN=C(C)C [Etazolate hydrochloride]

result:
1: 12.9; 2: 81.7; 3: 10.5; 4: 29.7; 5: 29.3; 6: 12.1; 7: 97.5; 8: 106

Provide the reported nuclei count of each entry below, same order.
1. CCNc1nc(Nc2cc(F)c(C(=O)N3CCOCC3)cc2OC)ncc1C(F)(F)F
2. CC1OC2(CS1)CN1CCC2CC1 (stereo not given) [Cevimeline hydrochloride]

result:
1: 96.2; 2: 101
